Entry source: patent US20240132593A1

- system.tested: Antibody No. 245.1
- test: peptide blocking ELISA on plate-bound VISTA, peptide 20 ug/mL
assay.metric: percent reduction in ELISA signal (%)
Your answer should be a plain number; it is taken to be in %.

Value of measured percent reduction in ELISA signal for the entry HRVHGAMELQVQTGK (synthetic overlapping peptide from human VISTA) [Spiked Peptide 26 (HRVHGAMELQVQTGK)] : 0

In plain terms, SSSQESENITAA (synthetic overlapping peptide from human VISTA) [Spiked Peptide 31 (SSSQESENITAA)] has a documented percent reduction in ELISA signal of 8

Summary for this binder, TCRLLGPVDKGHDVT (synthetic overlapping peptide from human VISTA) [Spiked Peptide 5 (TCRLLGPVDKGHDVT)] : percent reduction in ELISA signal is 9

The binder listed as NFSITMRNLTLLDSG (synthetic overlapping peptide from human VISTA) [Spiked Peptide 20 (NFSITMRNLTLLDSG)] shows percent reduction in ELISA signal equal to 28
